test system: 857933-349-R-J2-PDC complex spheroids, viability; experiment: Anticancer human tumor 857933-349-R-J2-PDC patient-derived colon adenocarcinoma cell line growth inhibition [GQUAD]; conditions: second compound 3.16 µM; first compound 0.1 µM; active = viability on the fitted dose curve at most 10% of control; inactive = the rest;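 also: spheroids exposed to compounds for one week before readout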
Please state which outcome applies, choosing from active, inactive

Use these answered entries as a reference point.
| COMPOUND | LABEL VALUE |
| --- | --- |
| CC(C)n1c(=O)n(C)c2cnc3cc(F)c(-c4ccc(OCCCN5CCCCC5)nc4)cc3c21 + Cc1[nH]c2ccc(F)cc2c1-c1nc2c3cccnc3c3ncccc3c2[nH]1 | inactive |
| CC1COCCN1c1cc(C2(O)CC3CCC(C2)O3)c2cnn(-c3ccn[nH]3)c2n1 (stereo not given) + Cc1[nH]c2ccc(F)cc2c1-c1nc2c3cccnc3c3ncccc3c2[nH]1 | inactive |

input: Assay outcome for CC(=O)O[C@H]1C(=O)[C@@]2(C)[C@H]([C@H](OC(=O)c3ccccc3)[C@]3(O)C[C@H](OC(=O)[C@H](O)[C@@H](NC(=O)c4ccccc4)c4ccccc4)C(C)=C1C3(C)C)[C@]1(OC(C)=O)CO[C@@H]1C[C@@H]2O + CN(C)c1ccc(Nc2c3ccc(NC(=O)CCN4CCCC4)cc3nc3cc(NC(=O)CCN4CCCC4)ccc23)cc1 : what was it?
output: inactive

input: Test call, this compound: C=CC(=O)N1CCN(c2nc(=O)n(-c3c(C)ccnc3C(C)C)c3nc(-c4c(O)cccc4F)c(F)cc23)C(C)C1 (stereo not given) + Cc1cnc(CNC(=O)c2c(=O)c3ccc(N4CCCN(C)CC4)nc3n3c2sc2ccccc23)cn1
output: active

input: Status in this test for CC1COCCN1c1cc(C2(S(C)(=N)=O)CC2)nc(-c2ccnc3[nH]ccc23)n1 (stereo not given) + CN(C)c1ccc(Nc2c3ccc(NC(=O)CCN4CCCC4)cc3nc3cc(NC(=O)CCN4CCCC4)ccc23)cc1 ?
output: inactive
